# Ki measurements, system: 5-hydroxytryptamine receptor 4 (Homo sapiens, UniProt Q13639)
# Sequence (Q13639 whole entry): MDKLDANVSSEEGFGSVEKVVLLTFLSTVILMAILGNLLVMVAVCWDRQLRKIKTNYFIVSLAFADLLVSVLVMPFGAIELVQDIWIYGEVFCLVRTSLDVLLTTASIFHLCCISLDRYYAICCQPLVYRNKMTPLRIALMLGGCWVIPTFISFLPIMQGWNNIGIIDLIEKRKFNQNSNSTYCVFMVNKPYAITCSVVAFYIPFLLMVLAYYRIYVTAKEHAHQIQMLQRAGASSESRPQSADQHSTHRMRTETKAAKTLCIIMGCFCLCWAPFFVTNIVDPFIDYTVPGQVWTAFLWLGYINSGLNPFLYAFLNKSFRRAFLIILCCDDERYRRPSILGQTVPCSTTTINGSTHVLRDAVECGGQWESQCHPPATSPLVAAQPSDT
Answers are plain numbers, in nM.

[[record]]
molecule = "CCCCN1CCC(CNC(=O)c2c3n(c4ccccc24)CCCO3)CC1 [PIBOSEROD]"
experimental_value = 0.398


Report Ki for each item below.
1. CS(=O)(=O)Nc1ccc(CN2CCC(CNC(=O)c3c4n(c5ccccc35)CCCO4)CC2)cc1
2. CC(C)CS(=O)(=O)Nc1ccc(CN2CCC(CNC(=O)c3c4n(c5ccccc35)CCCO4)CC2)cc1
3. CC(C(=O)O)c1ccc(CN2CCC(COC(=O)c3c4n(c5ccccc35)CCCO4)CC2)cc1 (stereo unspecified)
4. CS(=O)(=O)Nc1ccc(CN2CCC(CNC(=O)c3cccc4c3OCCO4)CC2)cc1

1: 0.2; 2: 0.0501; 3: 0.316; 4: 0.2
